- Test system: Candida haemulonii var. vulnera
- protocol.notes: Planktonic growth, broth microdilution (CLSI M27-A3), MIC
- Format: cell-based
- study.conditions: isolate LIP Ch11; planktonic, 48 h, 37°C
measurement.label: MIC (µg/mL)
Give just the number in µg/mL; leave the unit off.

| compound | MIC [µg/mL] |
| --- | --- |
| O=C1C(=O)c2cccnc2-c2ncccc21.O=C1C(=O)c2cccnc2-c2ncccc21.[Ag+].[O-][Cl+3]([O-])([O-])[O-] [compound 15, [Ag(phendione)2]ClO4] | 1 |
| O.O.O.O.O=C([O-])c1cccc(C(=O)[O-])c1.O=C([O-])c1cccc(C(=O)[O-])c1.[Mn+2].[Mn+2].c1cnc2c(c1)ccc1cccnc12.c1cnc2c(c1)ccc1cccnc12.c1cnc2c(c1)ccc1cccnc12 [compound 10, [Mn2(isoph)2(phen)3].4H2O] | 4 |
| [Ag+].[O-][Cl+3]([O-])([O-])[O-].c1cnc2c(c1)ccc1cccnc12.c1cnc2c(c1)ccc1cccnc12 [compound 17, [Ag(phen)2]ClO4] | 0.5 |

Proceeding to the next compound to report its MIC.
Q: Find the measured MIC: item O=[N+]([O-])[O-].[Ag+] [AgNO3, reference compound] , target or system Candida haemulonii var. vulnera.
Result: 0.5

###

- Test system: Candida haemulonii var. vulnera
- protocol.notes: Biofilm-growing cells, XTT assay, bMIC
- Type: cell-based
- study.conditions: isolate LIP Ch9; mature biofilm, 48 h, 50% inhibition of metabolic activity
Items are presented alongside their recorded bMIC.
Use mg/L as the unit, but write only the number.

Solved entries:
| compound | measurement.label | reported.value |
| --- | --- | --- |
| O.O.O=C([O-])c1ccccc1C(=O)[O-].[Mn+2].c1cnc2c(c1)ccc1cccnc12 [compound 8, [Mn(ph)(phen)(H2O)2]] | bMIC | 16 |
| O=C1C(=O)c2cccnc2-c2ncccc21 [phendione, 1,10-phenanthroline-5,6-dione, reference compound] | bMIC | 16 |

Q: # get_value(readout='bMIC', item= CCO.O=C([O-])CCCCCCC(=O)[O-].[Cu+2].[Cu+2].[O-][Cl+3]([O-])([O-])[O-].[O-][Cl+3]([O-])([O-])[O-].c1cnc2c(c1)ccc1cccnc12.c1cnc2c(c1)ccc1cccnc12.c1cnc2c(c1)ccc1cccnc12.c1cnc2c(c1)ccc1cccnc12 [compound 5, [Cu2(oda)(phen)4](ClO4)2.2.76H2O.EtOH] )
Result: 8

Q: Similarly, O=C1C(=O)c2cccnc2-c2ncccc21.O=C1C(=O)c2cccnc2-c2ncccc21.[Ag+].[O-][Cl+3]([O-])([O-])[O-] [compound 15, [Ag(phendione)2]ClO4] ?
Result: 32

Q: Lookup O=[N+]([O-])[O-].[Ag+] [AgNO3, reference compound]
Result: 64

###

- Test system: Candida haemulonii var. vulnera
- protocol.notes: Biofilm-growing cells, XTT assay, bMIC
- Assay type: cell-based
- study.conditions: isolate LIP Ch9; mature biofilm, 48 h, 50% inhibition of metabolic activity
We begin with a simple list: items and their reported bMIC.
Write the number in mg/L without appending the unit.

| compound | result.unit | bMIC |
| --- | --- | --- |
| CCO.O.O.O.O.O.O.O=C([O-])c1cccc(C(=O)[O-])c1.[Cu+2].c1cnc2c(c1)ccc1cccnc12.c1cnc2c(c1)ccc1cccnc12 [compound 3, [Cu(isoph)(phen)2].6H2O.EtOH] | mg/L | 8 |
| O.O.O.O=C([O-])CCCCCCCCCC(=O)[O-].[Ag+].[Ag+].c1cnc2c(c1)ccc1cccnc12.c1cnc2c(c1)ccc1cccnc12.c1cnc2c(c1)ccc1cccnc12 [compound 18, [Ag2(phen)3(udda)].3H2O] | mg/L | 0.5 |
| O.O.O.O.O.O=C([O-])c1ccc(C(=O)[O-])cc1.[Mn+2].c1cnc2c(c1)ccc1cccnc12.c1cnc2c(c1)ccc1cccnc12 [compound 12, [Mn(tereph)(phen)2].5H2O] | mg/L | 4 |

Turning to the following compound.
Q: Fill blank: measured bMIC of the compound O.O.O.O.O.O.O=C([O-])CCCCCCC(=O)[O-].O=C([O-])CCCCCCC(=O)[O-].O=C([O-])CCCCCCC(=O)[O-].O=C([O-])CCCCCCC(=O)[O-].[Mn+2].[Mn+2].[Mn+2].[Mn+2].c1cnc2c(c1)ccc1cccnc12.c1cnc2c(c1)ccc1cccnc12.c1cnc2c(c1)ccc1cccnc12.c1cnc2c(c1)ccc1cccnc12.c1cnc2c(c1)ccc1cccnc12.c1cnc2c(c1)ccc1cccnc12.c1cnc2c(c1)ccc1cccnc12.c1cnc2c(c1)ccc1cccnc12 is ____.
Result: 4

###

- Test system: Candida haemulonii var. vulnera
- protocol.notes: Biofilm-growing cells, XTT assay, bMIC
- Assay type: cell-based
- study.conditions: isolate LIP Ch5; mature biofilm, 48 h, 50% inhibition of metabolic activity
- Description: The effect of the compounds on biofilm-growing cells was determined using the previously described microtiter-based technique (Ramage et al., [2001]). […] The metabolic activity was then evaluated using a colorimetric assay that measures the metabolic reduction of 2,3-bis (2-methoxy-4-nitro-5-sulfophenyl)-5-[(phenylamino) carbonyl]-2H-tetrazolium hydroxide (XTT; Sigma-Aldrich) to a water-soluble, brown formazan product (Peeters et al., [2008]). […]
Entries annotated with measured bMIC
Your answer should be a plain number; it is taken to be in mg/L.

Consider the reported bMIC for these molecules:
| molecule | measurement.label | result.unit | reported.value |
| --- | --- | --- | --- |
| O.O.O.O.O=C1C(=O)c2cccnc2-c2ncccc21.O=C1C(=O)c2cccnc2-c2ncccc21.O=C1C(=O)c2cccnc2-c2ncccc21.[Cu+2].[O-][Cl+3]([O-])([O-])[O-].[O-][Cl+3]([O-])([O-])[O-] [compound 6, [Cu(phendione)3](ClO4)2.4H2O] | bMIC | mg/L | 32 |
| O.O.O.O.O=C([O-])c1cccc(C(=O)[O-])c1.O=C([O-])c1cccc(C(=O)[O-])c1.[Mn+2].[Mn+2].c1cnc2c(c1)ccc1cccnc12.c1cnc2c(c1)ccc1cccnc12.c1cnc2c(c1)ccc1cccnc12 [compound 10, [Mn2(isoph)2(phen)3].4H2O] | bMIC | mg/L | 32 |
| O=[N+]([O-])[O-].[Ag+] [AgNO3, reference compound] | bMIC | mg/L | 128 |
| O=C1C(=O)c2cccnc2-c2ncccc21 [phendione, 1,10-phenanthroline-5,6-dione, reference compound] | bMIC | mg/L | 16 |

Q: Fill in: bMIC of O=C1C(=O)c2cccnc2-c2ncccc21.O=C1C(=O)c2cccnc2-c2ncccc21.[Ag+].[O-][Cl+3]([O-])([O-])[O-] [compound 15, [Ag(phendione)2]ClO4] is ___
Result: 32

Q: Same for O.O.O.O=C([O-])CCCCCCCCCC(=O)[O-].[Ag+].[Ag+].c1cnc2c(c1)ccc1cccnc12.c1cnc2c(c1)ccc1cccnc12.c1cnc2c(c1)ccc1cccnc12 [compound 18, [Ag2(phen)3(udda)].3H2O]
Result: 8

Q: Next molecule up: O.O.O.O.O.O.O=C([O-])CCCCCCC(=O)[O-].O=C([O-])CCCCCCC(=O)[O-].O=C([O-])CCCCCCC(=O)[O-].O=C([O-])CCCCCCC(=O)[O-].[Mn+2].[Mn+2].[Mn+2].[Mn+2].c1cnc2c(c1)ccc1cccnc12.c1cnc2c(c1)ccc1cccnc12.c1cnc2c(c1)ccc1cccnc12.c1cnc2c(c1)ccc1cccnc12.c1cnc2c(c1)ccc1cccnc12.c1cnc2c(c1)ccc1cccnc12.c1cnc2c(c1)ccc1cccnc12.c1cnc2c(c1)ccc1cccnc12
Result: 16

Q: Another: O.O.O.O.O.O=C([O-])c1ccccc1C(=O)[O-].[Mn+2].c1cnc2c(c1)ccc1cccnc12.c1cnc2c(c1)ccc1cccnc12 [compound 9, [Mn(ph)(phen)2(H2O)].4H2O]
Result: 16

Q: # iterate: c1cnc2c(c1)ccc1cccnc12
Result: 4

###

- System: C. haemulonii complex
- protocol.notes: Planktonic growth, overall across all nine isolates
- Type: cell-based, Candida haemulonii complex
- study.conditions: geometric mean across all nine strains, in μM; read-out: Overall GM-MIC
Catalogue of MIC values
# unit: µM | format: bare number

| molecule | measured.on | measurement.label | result.unit | reported.value |
| --- | --- | --- | --- | --- |
| CCO.O=C([O-])COCCOCCOCC(=O)[O-].[Ag+].[Ag+].c1cnc2c(c1)ccc1cccnc12.c1cnc2c(c1)ccc1cccnc12.c1cnc2c(c1)ccc1cccnc12.c1cnc2c(c1)ccc1cccnc12 [compound 16, [Ag2(3,6,9-tdda)(phen)4].EtOH] | C. haemulonii complex | MIC | µM | 0.83 |

Q: // lookup MIC for O.O.O.O.O.O.O=C([O-])CCCCCCC(=O)[O-].O=C([O-])CCCCCCC(=O)[O-].O=C([O-])CCCCCCC(=O)[O-].O=C([O-])CCCCCCC(=O)[O-].[Mn+2].[Mn+2].[Mn+2].[Mn+2].c1cnc2c(c1)ccc1cccnc12.c1cnc2c(c1)ccc1cccnc12.c1cnc2c(c1)ccc1cccnc12.c1cnc2c(c1)ccc1cccnc12.c1cnc2c(c1)ccc1cccnc12.c1cnc2c(c1)ccc1cccnc12.c1cnc2c(c1)ccc1cccnc12.c1cnc2c(c1)ccc1cccnc12 [compound 13]
Result: 0.87
